# assay_system: ATP-binding cassette sub-family B member 6 (Homo sapiens)
# assay_overview: ABCB6 transporter inhibitors, pilot screen, K562-ABCB6 cells, flow cytometry, validation set (AID 588550);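 also: 0% = DMSO wells and 100% = benzethonium chloride 70 µM positive control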
# setup_conditions: K562-ABCB6 porphyrin accumulation, 1 h, at 10 µM, stronger effect = higher value
measure_name: inhibition (%)

>>> measured_result("CC1(C)C2CCC1(C(=O)O)c1nc3ccccc3nc12 (centres undefined)")
20
>>> measured_result("Cc1csc(-c2coc3cc(O)cc(C)c3c2=O)n1")
17
>>> measured_result("COc1cc2c(cc1OC)C(c1cc3ccccc3oc1=O)=NC(C)(C)C2")
10
>>> measured_result("CC(=O)O[C@]1(C(C)=O)CC[C@H]2[C@@H]3C=C(Cl)C4=CC(=O)CC[C@]4(C)[C@H]3CC[C@@]21C")
9
>>> measured_result("CC(=O)CCc1oc2ccccc2c1-c1ccccc1")
7
>>> measured_result("CCN(CC)C(=S)SSC(=S)N(CC)CC")
4
>>> measured_result("CNC[C@H](O)c1cccc(O)c1")
-8
>>> measured_result("COc1ccc(C2NC(=O)c3ccccc3N2)cc1OC (centres undefined)")
11
>>> measured_result("Oc1ccc(/C=C/c2cc(O)cc(O)c2)cc1")
6
>>> measured_result("COc1cc(C2CC(=O)NC3=C2C(=O)CC(C)(C)C3)ccc1O (centres undefined)")
4
>>> measured_result("CC(C)OC(=O)C(C)(C)Oc1ccc(C(=O)c2ccc(Cl)cc2)cc1")
7
>>> measured_result("COc1cc2c(cc1OC)C1(CCCCC1)CN(C)C2")
-22
>>> measured_result("COc1ccc(/C=C\\C(=O)c2c(O)ccc3c(C)cc(=O)oc23)cc1OC")
-4
>>> measured_result("CNCCc1ccccn1")
1
>>> measured_result("C[C@@H]1C[C@H]2[C@@H]3CCC4=CC(=O)C=C[C@]4(C)[C@@]3(F)[C@@H](O)C[C@]2(C)[C@H]1C(=O)CO")
6
>>> measured_result("Cn1cc(CN(CCO)Cc2cccs2)c(-c2cccc(Cl)c2)n1")
5
>>> measured_result("COc1ccc(-c2noc(CCc3ccccc3)n2)cc1")
0
>>> measured_result("CC1(C)Cc2nc3oc4c(NCc5ccccc5)ncnc4c3cc2CO1")
5
>>> measured_result("CN(C)C(=O)C12CCC(C)(c3nc4ccccc4nc31)C2(C)C (centres undefined)")
5
>>> measured_result("Cc1[nH]c2ccccc2c1C(=O)CN1CCCC1")
48
>>> measured_result("CCCOc1ccc(-c2cc(C(=O)NCC3CCCO3)c3ccccc3n2)cc1 (centres undefined)")
12
>>> measured_result("COCc1cc(=O)[nH]c(Nc2nc3ccccc3o2)n1")
4
>>> measured_result("C/C=C/Cn1c(SC)nc2c1c(=O)[nH]c(=O)n2C")
0
>>> measured_result("CC(=O)N1CC2(C)CN(C(C)=O)CC(C)(C1)C2")
-1

* * *

# assay_overview: modulators of CIT2-GFP expression in yeast, confirmation, S. cerevisiae, GFP fusion, cherry picks, mother/daughter gates (AID 2274)
# setup_conditions: S. cerevisiae CIT2-GFP strain, flow cytometry, 3 h; at 10 µM; stronger effect = higher value
Outcome: Criterion met for GFP response, % of DMSO of at least 90%; Criterion not met for anything lower.

>>> class_name("Cn1cnnc1SCC(=O)Nc1nc(-c2ccc(F)cc2)cs1")
"Criterion met"
>>> class_name("CCOc1ccc2ccccc2c1C(=O)N1CCN(c2ccccc2)CC1")
"Criterion met"
>>> class_name("CN1C(=O)c2cccc3c(Cl)ccc(c23)C1=O")
"Criterion met"
>>> class_name("CCOc1cc(C)c(S(=O)(=O)N2CCCC2)cc1C")
"Criterion not met"
>>> class_name("O=C1ON=C(c2ccccc2)/C1=C/c1ccco1")
"Criterion not met"
>>> class_name("Cc1ccc2[nH]cc(/C=C/c3cc[n+](C)cc3)c2c1")
"Criterion met"
>>> class_name("Cc1cc(NC(c2ccc(Cl)cc2)c2ccc3cccnc3c2O)no1 (stereo unspecified)")
"Criterion met"
>>> class_name("CCn1c(=O)c(C(=O)NCc2ccc(OC)c(OC)c2)c(O)c2ccccc21")
"Criterion met"
>>> class_name("CCc1ccc(-c2csc(NC(=O)COC(=O)CCc3nc4ccccc4s3)n2)cc1")
"Criterion met"
>>> class_name("O=C1ON=C(c2ccccc2)/C1=C\\c1ccco1")
"Criterion not met"

* * *

# assay_overview: LAP4-GFP expression modulators in yeast, confirmation, cell-based, cherry picks, flow cytometry, mother/daughter gates (AID 2271);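 also: ratio of sample to DMSO plate mean so 100% equals DMSO level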
# setup_conditions: S. cerevisiae LAP4-GFP strain, 3 h, at 10 µM, stronger effect = higher value, 100 means same as DMSO control
Listed next: entries and their corresponding GFP response relative to DMSO.
measure_name: GFP response relative to DMSO (%)

>>> measured_result("Cc1onc(-c2ccccc2)c1C(=O)N1CCC(C)CC1")
103
>>> measured_result("COc1ccc2c(/C=C/c3cc[n+](C)cc3)c[nH]c2c1")
144
>>> measured_result("CCN(CC)c1ccc2cc(C(=O)O)c(=O)oc2c1")
126
>>> measured_result("Clc1cccc(Cn2ncc3ccccc32)c1")
103
>>> measured_result("Oc1ccc(-c2csc(-c3ccccc3)n2)cc1O")
124
>>> measured_result("CCC(=O)Nc1cccc(C(=O)/C=C/c2ccccc2)c1")
105
>>> measured_result("CCCCN(CC)S(=O)(=O)c1ccc(C(=O)Nc2nnc(COC)o2)cc1")
100
>>> measured_result("O=C(Sc1cccc2cccnc12)c1ccccc1Br")
151
>>> measured_result("O=C(NNC(=S)NC(=O)C12CC3CC(CC(C3)C1)C2)c1ccncc1")
137
>>> measured_result("O=C(COc1ccccc1)NNC(=S)NC(=O)c1ccccc1")
171
>>> measured_result("COc1cccc(/C(C)=N/NC(=O)c2ccc(N(C)C)cc2)c1")
93
>>> measured_result("CN(C)CCCN(C(=O)c1cccs1)c1nc(-c2ccccc2)cs1")
90.7
>>> measured_result("C=CCn1c(=O)c(C(=O)Nc2ccccc2O)c(O)c2ccccc21")
108
>>> measured_result("C=CCOc1ccc(/C=C2\\N=C(C)OC2=O)cc1OC")
137
>>> measured_result("CCOc1cc(-c2noc(-c3cccnc3)n2)ccc1OC")
98.9
>>> measured_result("CCN(CC)c1ccc(/C=C2\\SC(=O)N(C(C)C)C2=O)o1")
117
>>> measured_result("CN1CCc2c(sc3c2C(=O)NC(c2ccc4c(c2)OCO4)N3)C1 (centres undefined)")
96.5
>>> measured_result("Cc1cccn2c(=O)c(/C=C(\\C#N)C(=O)NCc3ccccc3)c(N3CCC(C(N)=O)CC3)nc12")
101
>>> measured_result("O=[N+]([O-])c1ccc(N2N=C(c3ccco3)CC2c2ccccc2)cc1 (centres undefined)")
107
>>> measured_result("CC(C(=O)O)n1nc(-c2ccccc2)c2ccccc21 (centres undefined)")
99.5
>>> measured_result("CSc1nc(N2CCN(c3ccccc3Cl)CC2)c2ccccc2n1")
98.9
>>> measured_result("O=C(c1ccc([N+](=O)[O-])o1)N(Cc1nnc(-c2ccccc2Cl)o1)C1CC1")
98.2
>>> measured_result("Oc1cccc(/C=N/c2c(-c3ccco3)nc3ccccn23)c1")
96.5
>>> measured_result("CCOc1ccc(N2C(=O)C(Cl)=C(Nc3ccccc3O)C2=O)cc1")
103
>>> measured_result("CCOC(=O)/C(=C\\c1cn(C)c2ccccc12)[N+](=O)[O-]")
204
>>> measured_result("CCNC(=O)/C(C#N)=C/c1c(N(Cc2ccccc2)Cc2ccccc2)nc2ccccn2c1=O")
102
>>> measured_result("Cc1cccc(C(=O)NNC(=S)NC(=O)c2ccccc2)c1")
122
>>> measured_result("CN(C)c1ccc(N=Cc2nc(-c3ccccc3)oc2OC(=O)c2cccc(Br)c2)cc1")
93.7
>>> measured_result("Cc1ccc(N2C(=O)C3C4C=CC(CNC(=S)Nc5cccc(Cl)c5)(O4)C3C2=O)cc1 (centres undefined)")
97
>>> measured_result("NC(=O)c1ccc(Oc2ccc(-c3nnco3)cc2)c([N+](=O)[O-])c1")
93.8
>>> measured_result("CCCCNc1c(-c2ccc(SC(C)CC)cc2)nc2ccccn12 (centres undefined)")
120
>>> measured_result("CCOC(=O)c1ccc(NC(=O)CCc2nc(-c3cccc(C)c3)no2)cc1")
102
>>> measured_result("Cc1nnc(NC(=O)c2nc(S(=O)(=O)Cc3ccccc3)ncc2Cl)s1")
96.5
>>> measured_result("CCc1cc(=O)oc2c(CN3CCCC3)c(O)c(Cl)cc12")
104
>>> measured_result("O=C(O)CSC1CC(=O)N(c2ccc(Cl)cc2)C1=O (centres undefined)")
102
>>> measured_result("CCCOc1ccc(C(=O)NNC(=S)NC(=O)c2ccco2)cc1")
175
>>> measured_result("COc1cc(NC(=O)c2cccs2)ccc1NC(=O)c1cc2ccccc2o1")
96.7
>>> measured_result("C(=N\\Nc1nc(-c2cccnc2)nc2ccccc12)/c1ccccc1")
99.2
>>> measured_result("Cc1cccn2c(=O)c(/C=C(\\C#N)C(N)=O)c(N3CCN(Cc4ccc5c(c4)OCO5)CC3)nc12")
101
>>> measured_result("Cc1cc(N2CCN(C(=O)c3ccco3)CC2)n2ncc(-c3ccccc3)c2n1")
108
>>> measured_result("CC(=O)c1ccc2c3c(cccc13)C(=O)N(c1c(C)nn(C)c1C)C2=O")
97.7
>>> measured_result("COC(=O)C1CCN(C(=O)COC(=O)CCc2nc3ccccc3c(=O)[nH]2)CC1")
97.7
>>> measured_result("O=C(NN1C(=O)/C(=C\\c2ccc(O)c([N+](=O)[O-])c2)SC1=S)c1ccccc1Cl")
126
>>> measured_result("Cc1ccc(S(=O)(=O)NCC23C=CC(O2)C2C(=O)N(c4ccccc4)C(=O)C23)cc1 (centres undefined)")
96.7
